Entry source: the supplement of paper PMC7411640

Field: phospho-S6 immunofluorescence (z-score). Provide a value for each of the compounds that follow.
# Test system: MDA-MB-468
# experimental.details: phospho-S6 immunofluorescence (DAPI-normalised), per-plate z-score; higher = higher phospho-S6 signal (less pathway suppression)
# cond: co-treatment: lapatinib 1 uM; 24 h
Structures can show the parent of a compound that is named as a salt.
Answers are plain numbers.

Look at each compound and report its phospho-S6 immunofluorescence (z-score).
1. O=C1Nc2ccccc2C2(CCN(CCc3ccc(C(F)(F)F)cc3)CC2)O1 (compound 10 µM)
2. CC[N+](C)(CC)CCOC(=O)C(O)(c1ccccc1)c1ccccc1 [Methylbenactyzium Bromide] (compound 10 µM)
3. C[C@@H]1CN(Cc2ccc(F)cc2)CCN1C(=O)COc1ccc(Cl)cc1NC(N)=O (compound 10 µM)
4. CN1CCC(C(=O)c2cccc(NC(=O)c3c(F)cc(F)cc3F)n2)CC1 [Lasmiditan (hydrochloride)] (compound 10 µM)
5. C=CCN1C[C@H](C(=O)N(CCCN(C)C)C(=O)NCC)C[C@@H]2c3cccc4[nH]cc(c34)C[C@H]21 [Cabergoline] (compound 10 µM)

A:
[-4.41, -0.59, -6.96, -3.95, -0.33]

Look at each compound and report its phospho-S6 immunofluorescence (z-score).
1. COc1ccc(C(=O)c2c(C)n(CCN3CCOCC3)c3cc(I)ccc23)cc1 (compound 10 µM)
2. Cc1cccc(C(C)c2c[nH]cn2)c1C (stereo unspecified) [Medetomidine (hydrochloride)] (compound 10 µM)
3. COc1ccc2c(c1)[nH]c1c(C)nccc12 [Harmine] (compound 10 µM)
4. COc1ccc2c(c1OC)CN1CCc3cc4c(cc3C1C2)OCO4 (stereo unspecified) [Tetrahydroberberine] (compound 10 µM)
5. O=C1CC[C@@]2(O)[C@H]3Cc4ccc(O)c5c4[C@@]2(CCN3CC2CC2)[C@H]1O5 [Naltrexone (Hydrochloride)] (compound 10 µM)

A:
1. -1.01
2. 0.79
3. -1.57
4. -1.09
5. 0.25

Look at each compound and report its phospho-S6 immunofluorescence (z-score).
1. COc1ccc2[nH]cc(C3=CCNCC3)c2c1 (compound 10 µM)
2. CN(C)CCN(C)CCc1ccc(Cl)c(Cl)c1 [BD-1047 (dihydrobromide)] (compound 10 µM)
3. CN(C)C(=O)Oc1cc(OC(=O)N(C)C)cc(C(O)CNC(C)(C)C)c1 (stereo unspecified) [Bambuterol (hydrochloride)] (compound 10 µM)
4. CNCC(O)c1ccc(O)cc1 (stereo unspecified) [Synephrine (hydrochloride)] (compound 10 µM)
5. COc1cc2c3c(c1OC)-c1ccccc1C[C@H]3N(C)CC2 [Nuciferine] (compound 10 µM)
6. CCCC(C)(C)c1ccc2c(c1)OC(C)(C)[C@@H]1CC=C(C)C[C@@H]21 (compound 10 µM)

A:
1: -2.58; 2: -1.41; 3: 0.49; 4: 0.35; 5: -0.74; 6: 1.8

----------
# Test system: MDA-MB-468
# experimental.details: phospho-S6 immunofluorescence (DAPI-normalised), per-plate z-score; higher = higher phospho-S6 signal (less pathway suppression)
# cond: co-treatment: GDC0941 450 nM; 24 h
Where a name gives a salt, the structure may show the parent alone.
result.type: phospho-S6 immunofluorescence (z-score)
One number for each entry.

compound="CN1CCC(c2c[nH]c3ccc(O)cc23)CC1 (compound 10 µM)" measured_value=0.22
compound="CCCC(C)(C)c1ccc2c(c1)OC(C)(C)[C@@H]1CC=C(C)C[C@@H]21 (compound 10 µM)" measured_value=2.38
compound="Oc1ccc2c3c1O[C@H]1c4[nH]c5ccccc5c4C[C@@]4(O)[C@@H](C2)N(CC2CC2)CC[C@]314 [Naltrindole (hydrochloride)] (compound 10 µM)" measured_value=-1.12

Q: Quick one: phospho-S6 immunofluorescence (z-score) of C[N+]1(C)CCCC(OC(=O)C(O)(c2ccccc2)c2ccccc2)C1 (centres undefined) [Mepenzolate (Bromide)] (compound 10 µM) ?
A: -0.25
